assay-target: human B1R receptor (hB1R) (Homo sapiens, UniProt P46663)
Construct: host or cells: CHO K1 cells
Sequence (P46663 whole entry): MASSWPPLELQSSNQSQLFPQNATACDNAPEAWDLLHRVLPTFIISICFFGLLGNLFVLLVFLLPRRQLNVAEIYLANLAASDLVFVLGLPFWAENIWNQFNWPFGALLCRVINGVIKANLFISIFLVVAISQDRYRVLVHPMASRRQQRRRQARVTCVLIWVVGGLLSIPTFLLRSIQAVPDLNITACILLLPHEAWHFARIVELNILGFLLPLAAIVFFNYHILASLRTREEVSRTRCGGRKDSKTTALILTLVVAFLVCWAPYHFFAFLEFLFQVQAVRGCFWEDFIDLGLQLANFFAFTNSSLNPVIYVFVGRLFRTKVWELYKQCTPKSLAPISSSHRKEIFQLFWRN
protocol-text: FLIPR Ca2+ assay on hB1R-transfected CHO K1 cells, antagonistic action
Assay type: cell-based
measurement-context: CHO-K1, 10 μM test substance; agonist Lys-Des-Arg9-bradykinin 0.5 nM; % of maximum achievable inhibition; read-out: hB1R [10 μM] % inhibition
Each record here notes measured inhibition at 10 µM.

Worked set:
molecule	assay-target	inhibition at 10 µM
COc1cc(C)c(S(=O)(=O)N2CCCCC2COCC(=O)N(C)CCCC2CCC(CCc3ccccc3)(N3CCCC3)CC2)c(C)c1 (stereo not drawn) [Compound 59]	human B1R receptor (hB1R) (Homo sapiens, UniProt P46663)	101%
CN1CCN(C2(c3cccc(F)c3)CCN(C(=O)COCC3CCc4ccccc4N3S(=O)(=O)c3ccc4ccccc4c3)CC2)CC1 (stereo not drawn) [Compound 228]	human B1R receptor (hB1R) (Homo sapiens, UniProt P46663)	100%
O=C(CC1CCCCN1S(=O)(=O)c1cccc(C(F)(F)F)c1)N1CCC(c2ccccc2)(N2CCN(c3ccncc3)CC2)CC1 (stereo not drawn) [Compound 113]	human B1R receptor (hB1R) (Homo sapiens, UniProt P46663)	79%

Exercise: Look up inhibition at 10 µM for this molecule: CN(CCC1CCC(Cc2ccccc2)(N2CCCC2)CC1)C(=O)CC(NS(=O)(=O)c1ccc2ccccc2c1)c1ccccc1 (stereo not drawn) [Compound 56]
Key: 101%

Exercise: Look up inhibition at 10 µM for this molecule: COc1cc(C)c(S(=O)(=O)N2CCCCC2COCC(=O)N(C)CCC2CCC(CCc3ccccc3)(N(C)C)CC2)c(C)c1 (stereo not drawn) [Compound 73]
Key: 104%

Exercise: Look up inhibition at 10 µM for this molecule: COc1cc(C)c(S(=O)(=O)N2CCCC(OCC(=O)N(C)CC3CCC(Cc4ccccc4)(N4CCN(C)CC4)CC3)C2)c(C)c1 (stereo not drawn) [Compound 184]
Key: 93%
